B1: Gamma-crystallin C, residues 91 to 170; numbered along this chain, P07315 (parent)
chain: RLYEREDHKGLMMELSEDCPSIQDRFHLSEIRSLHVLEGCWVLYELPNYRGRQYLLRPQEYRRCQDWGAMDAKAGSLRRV

# Variants of: B1
# PROCEDURE DETAILS: abundance fitness (aPCA) (normalised: wild type 0, dead -1); higher = more abundant; growth selection in yeast, the domain comes from the species named
# CONDITION SUMMARY: Homo sapiens
Assign class by abundance fitness: not lower than -0.2 means T; lower than -0.2 means F.

Problem: Given the entry "L43C" , answer whether its abundance fitness meets or surpasses -0.2.
Result: F

Problem: Is abundance fitness for "R1D" at or above -0.2?
Result: F

Problem: Textbook exercise: given the entry "I22L" , state whether its abundance fitness is greater than or equal to -0.2.
Result: T
